Exercise: state measured bioavailability for each of the molecules provided.
test: BA test (oral absorbability); format: in vivo; conditions: plasma; Mouse, oral administration 1 mg/kg

Field request: bioavailability | item: Cc1c(C(=O)Nc2cccc(C(F)(F)F)c2)cc(-c2ccccc2)n1CCCN1CCNCC1
15.2%

Try this molecule next: CNCCCn1c(-c2ccccc2)cc(C(=O)Nc2cccc(C(F)(F)F)c2)c1C
24.4%

====

biological target: human TRPV4 (Homo sapiens (Human)); assay: Test Example 3: measurement of TRPV4 inhibitory activity (Fluo-3, FDSS 3000, 4α-PDD); assay type: cell-based; conditions: hTRPV4/CHO cells, calculated from IC50 and 4α-PDD EC50
experimentalReadout: pKi
pKi field: float, defined as -log10 of concentration (mol/L).

Recall the recorded pKi for Cc1cc(C(=O)Nc2cccc(C(F)(F)F)c2)c(C)n1CCCN1CCOCC1 with human TRPV4 (Homo sapiens (Human)) and state it.
5.81

Continue with Cc1c(C(=O)Nc2cccc(C(C)C)c2)cc(-c2ccccc2)n1CCCN1CCOCC1
6.28

Same thing, different molecule: Cc1c(C(=O)Nc2cccc(C(F)(F)F)c2)cc(-c2ccccc2)n1CCCN(C)C(=O)C1CCCC1
6.38

Next molecule up: Cc1c(C(=O)Nc2cccc(C(F)(F)F)c2)cc(-c2ccccc2)n1CCCN(C)CC1CCN(C)CC1
6.55

Moving on to the next molecule: COCC(=O)N(C)CCCn1c(-c2ccccc2)cc(C(=O)Nc2cccc(C(F)(F)F)c2)c1C
5.76

Record: Cc1c(C(=O)Nc2cccc(C(F)(F)F)c2)cc(-c2ccccc2)n1CCCNS(C)(=O)=O
6.37

And what about the molecule Cc1c(C(=O)Nc2cccc(C(F)(F)F)c2)cc(-c2ccccc2)n1CCCN(C)C(=O)C1CCCCC1 ?
5.95

Another: Cc1c(C(=O)Nc2cccc(C(F)(F)F)c2)cc(-c2ccccc2)n1CCCN(C)C(=O)Cc1cccs1
5.78

Thanks! And Cc1c(C(=O)Nc2nccs2)cc(-c2ccccc2)n1CCCN1CCOCC1 ?
5.83

Let us now turn to Cc1c(C(=O)Nc2cccc(C(F)(F)F)c2)cc(-c2ccccc2)n1CCCN
6.22

Request: Cc1c(C(=O)Nc2cccc(C(F)(F)F)c2)cc(-c2ccccc2)n1CCCNc1ccccc1
5.77

Now consider Cc1c(C(=O)Nc2cccc(C(F)(F)F)c2)cc(-c2ccccc2)n1CCCN(C)CC[C@H](O)[C@H](O)CO and answer again.
6.11

Now the molecule CNCCCn1c(-c2ccccc2)cc(C(=O)Nc2cccc(C(F)(F)F)c2)c1C
6.80

// query: Cc1c(C(=O)Nc2cccc(C(F)(F)F)c2)cc(-c2ccccc2)n1CCCN1CCNC(=O)C1
6.71

// next record Cc1c(C(=O)Nc2cccc(C(F)(F)F)c2)cc(-c2ccccc2)n1CCCN(C)C(=O)c1cccnc1
6.01

Now consider Cc1c(C(=O)Nc2cccc(C(F)(F)F)c2)cc(C(C)(C)C)n1CCCN1CCOCC1 .
6.71

====

Task for the reader: assign each of the following compounds its reported pIC50.
molecular target: UniProt Q9HBA0; experiment: Test Example 1: measurement of TRPV4 inhibitory activity (Fluo 4-AM, FLIPR TETRA, 4α-PDD 1 μmol/L); format: cell-based; details: hTRPV4/CHO cells, 4α-PDD 1 μmol/L
A value of pIC50 is the negative decimal logarithm of a concentration given in moles per litre.

What is its pIC50 for UniProt Q9HBA0? Entry: Cc1c(C(=O)Nc2cccc(C(F)(F)F)c2)cc(C(C)(C)C)n1CC(F)(F)CN1CCNCC1 [Compound I-125]
5.82

Then Cc1c(C(=O)Nc2cccc(C(F)(F)F)c2)cc(C(C)(C)C)n1CC(C)(C)CN1CCNCC1 [Compound I-123] ?
5.85

Query Cc1c(C(=O)Nc2cccc(C(F)(F)F)c2)cc(C2CCN(S(C)(=O)=O)CC2)n1CCCN1CCOCC1 [Compound I-078] next
5.31

Record: Cc1c(C(=O)Nc2cccc(C(F)(F)F)c2)cc(C(C)(C)C)n1CCC(C)N1CCNCC1 (stereo not drawn) [Compound I-124]
6.59

# iterate: Cc1c(C(=O)Nc2cccc(C(F)(F)F)c2)cc(C(C)(C)C)n1[C@H]1CC[C@@H](N(C)S(C)(=O)=O)CC1 [Compound I-120]
5.46

Now the compound Cc1c(C(=O)Nc2cccc(C(F)(F)F)c2)cc(C(C)(C)C)n1[C@H]1CC[C@H](N)CC1 [Compound I-111]
5.39

Next compound: CNCC(F)(F)Cn1c(C(C)(C)C)cc(C(=O)Nc2cccc(C(F)(F)F)c2)c1C [Compound I-121]
5.85

Try O=C(Nc1cccc(C(F)(F)F)c1)c1cc(-c2ccccc2)n(CCCN2CCOCC2)n1 [Compound I-086] next.
5.47

How about Cc1c(C(=O)Nc2cccc(C(F)(F)F)c2)cc(C(C)(C)C)n1CCC(C)N1CCOCC1 (stereo not drawn) [Compound I-097] ?
6.37

And the next one, Cc1c(C(=O)Nc2cccc(C(F)(F)F)c2)cc(C(C)(C)C)n1C1CCNCC1 [Compound I-099] ?
5.23

How about COC(=O)NCCCn1c(-c2ccccc2)cc(C(=O)Nc2cccc(C(F)(F)F)c2)c1C [Compound I-027] ?
5.74

Could you do the same for O=C(Nc1cccc(C(F)(F)F)c1)c1cc(-c2ccccc2)n(CCCN2CCOCC2)c1C(F)(F)F [Compound I-028] , please?
5.42

Repeat for the following compound: Cc1c(C(=O)Nc2cccc(C(F)(F)F)c2)cc(-c2ccccc2)n1CCN1CCOCC1 [Compound I-083]
6.40

Would you mind doing CNCCCn1c(C(C)(C)C)cc(-c2nc3ccccc3[nH]2)c1C [Compound I-129] as well?
5.19

Follow-up entry: CC(=O)NCCCn1c(-c2ccccc2)cc(C(=O)Nc2cccc(C(F)(F)F)c2)c1C [Compound I-025]
5.49

Same lookup for Cc1c(C(=O)Nc2cccc(C(F)(F)F)c2)cc(-c2cccnc2)n1CCCN1CCOCC1 [Compound I-021] , please.
6.21

What about Cc1c(C(=O)Nc2cccc(C(F)(F)F)c2)cc(C(C)(C)C)n1CCS(=O)(=O)N1CCNCC1 [Compound I-098] ?
5.72

And the next one, Cc1c(C(=O)Nc2cccc(C(F)(F)F)c2)cc(-c2ccccc2)n1CCCO [Compound I-006] ?
5.64

Check CC(=O)N1CCC(n2c(C(C)(C)C)cc(C(=O)Nc3cccc(C(F)(F)F)c3)c2C)CC1 [Compound I-101] too.
5.13

Could you do the same for Cc1c(C(=O)Nc2cccc(C(F)(F)F)c2)cc(-c2ccccc2)n1CCCNS(C)(=O)=O [Compound I-026] , please?
6.07

Now consider Cc1c(C(=O)Nc2cccc(C(F)(F)F)c2)cc(-c2ccccc2)n1CCCN(C)C(=O)C1CCCC1 [Compound I-049] .
6.62

For Cc1c(-c2nc3ccccc3o2)cc(C(C)(C)C)n1CCCN1CCNCC1 [Compound I-126] then?
5.35

Repeat with CC(=O)N1CCN(CCCn2c(-c3ccccc3)cc(C(=O)Nc3cccc(C(F)(F)F)c3)c2C)CC1 [Compound I-015]
5.59

How about Cc1c(C(=O)Nc2cccc(C(F)(F)F)c2)cc(C(C)(C)C)n1CCS(=O)(=O)N1CCOCC1 [Compound I-095] ?
6.01

Thanks! And CNCCCn1c(C(C)(C)C)cc(S(=O)(=O)Nc2cccc(C(F)(F)F)c2)c1C [Compound I-117] ?
5.04

# repeat for Cc1c(C(=O)Nc2cccc(C(F)(F)F)c2)cc(C(C)(C)C)n1CC(C)(C)CN1CCOCC1 [Compound I-108]
6.27

Please answer likewise for Cc1c(C(=O)Nc2cccc(C(F)(F)F)c2)cc(-c2ccccc2)n1CCCN(C)CC(C)C [Compound I-032]
6.19

====

target: human TRPV4 (Homo sapiens (Human), UniProt Q9HBA0); assay: Test Example 1: measurement of TRPV4 inhibitory activity (Fluo 4-AM, FLIPR TETRA, 4α-PDD 1 μmol/L); type: cell-based; conditions: hTRPV4/CHO cells, calculated from IC50 and 4α-PDD EC50
Sequence (Q9HBA0 whole entry): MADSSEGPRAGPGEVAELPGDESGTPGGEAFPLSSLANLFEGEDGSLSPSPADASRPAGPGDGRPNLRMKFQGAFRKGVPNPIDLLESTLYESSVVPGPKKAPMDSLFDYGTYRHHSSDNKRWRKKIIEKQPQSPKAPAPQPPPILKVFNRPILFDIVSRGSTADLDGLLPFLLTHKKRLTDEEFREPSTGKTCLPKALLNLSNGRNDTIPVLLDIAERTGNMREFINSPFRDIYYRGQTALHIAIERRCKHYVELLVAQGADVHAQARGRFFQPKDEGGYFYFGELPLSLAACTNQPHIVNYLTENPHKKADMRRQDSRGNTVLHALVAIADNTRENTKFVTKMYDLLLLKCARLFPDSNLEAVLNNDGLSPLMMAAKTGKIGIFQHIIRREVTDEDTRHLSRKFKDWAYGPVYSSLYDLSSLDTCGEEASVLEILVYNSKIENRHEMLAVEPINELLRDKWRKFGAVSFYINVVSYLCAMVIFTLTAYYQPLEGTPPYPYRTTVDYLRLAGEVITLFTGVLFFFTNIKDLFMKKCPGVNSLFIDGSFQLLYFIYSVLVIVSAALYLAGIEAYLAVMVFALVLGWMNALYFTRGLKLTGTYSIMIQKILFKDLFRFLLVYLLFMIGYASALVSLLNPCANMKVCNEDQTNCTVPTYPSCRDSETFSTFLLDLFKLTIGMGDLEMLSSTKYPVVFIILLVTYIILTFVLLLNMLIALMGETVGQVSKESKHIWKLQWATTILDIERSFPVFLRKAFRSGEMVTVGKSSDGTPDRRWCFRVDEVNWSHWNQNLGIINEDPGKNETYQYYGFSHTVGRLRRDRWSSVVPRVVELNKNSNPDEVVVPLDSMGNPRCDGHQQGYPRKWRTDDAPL
Provide the reported Ki of each item.
Response body: numeric value in nM, unit text excluded.

Give human TRPV4 (Homo sapiens (Human), UniProt Q9HBA0) Ki for Cc1c(C(=O)Nc2cccc(C(F)(F)F)c2)cc(C(C)(C)C)n1CCS(=O)(=O)N1CCNCC1 [Compound I-098]
590

Let us now turn to Cc1c(C(=O)Nc2cccc(C(F)(F)F)c2)cc(C(C)(C)C)n1[C@H]1CC[C@H](NS(C)(=O)=O)CC1 [Compound I-114]
2300

Okay, and CNC(C)CCn1c(C(C)(C)C)cc(C(=O)Nc2cccc(C(F)(F)F)c2)c1C (stereo not drawn) [Compound I-096] ?
130

Request: Cc1c(S(=O)(=O)NCc2cccc(C(F)(F)F)c2)cc(C(C)(C)C)n1CCCN1CCOCC1 [Compound I-104]
2700

What about this molecule? O=C(Nc1cccc(C(F)(F)F)c1)c1cnc(-c2ccccc2)c(CCCN2CCOCC2)c1 [Compound I-088]
2800

Proceed to CN[C@H]1CC[C@H](n2c(C(C)(C)C)cc(C(=O)Nc3cccc(C(F)(F)F)c3)c2C)CC1 [Compound I-112]
1500

Next: CNCC(F)(F)Cn1c(C(C)(C)C)cc(C(=O)Nc2cccc(C(F)(F)F)c2)c1C [Compound I-121]
450

Another molecule to look at: Cc1c(C(=O)Nc2cccc(C(F)(F)F)c2)cc(C#N)n1CCCN1CCOCC1 [Compound I-079]
3200

Query Cc1c(C(=O)Nc2cccc(C(F)(F)F)c2)cc(C(C)(C)C)n1C1CCNCC1 [Compound I-099] next
2100

Please answer likewise for Cc1c(S(=O)(=O)Nc2cccc(C(F)(F)F)c2)cc(C(C)(C)C)n1CCCN1CCOCC1 [Compound I-118]
2500

Again, but for CCOC(=O)CCn1c(C(C)(C)C)cc(C(=O)Nc2cccc(C(F)(F)F)c2)c1C [Compound I-090]
380

Here is the next molecule: Cc1c(C(=O)Nc2cccc(C(F)(F)F)c2)cc(C(C)(C)C)n1C1CCN(C)CC1 [Compound I-106]
1200

And for O=C(Nc1cccc(C(F)(F)F)c1)c1cc(-c2ccccc2)nn1CCCN1CCOCC1 [Compound I-085] ?
590

Next entry: CC(=O)N1CCC(c2cc(C(=O)Nc3cccc(C(F)(F)F)c3)c(C)n2CCCN2CCOCC2)CC1 [Compound I-077]
2000

Also check Cc1c(C(=O)Nc2cccc(C(F)(F)F)c2)cc(C2CCCCC2)n1CCCN1CCOCC1 [Compound I-072]
21

Check Cc1c(C(=O)Nc2cccc(C(F)(F)F)c2)cc(C(C)(C)C)n1C1CCN(S(C)(=O)=O)CC1 [Compound I-102] too.
1500

And the next one, Cc1c(C(=O)Nc2cccc(C(F)(F)F)c2)cc(C(C)(C)C)n1CC(C)(C)CN1CCOCC1 [Compound I-108] ?
170

What do we get for O=C(Nc1cccc(C(F)(F)F)c1)c1cc(-c2ccccc2)n(CCCN2CCOCC2)n1 [Compound I-086] ?
1600

Also CNS(=O)(=O)CCn1c(C(C)(C)C)cc(C(=O)Nc2cccc(C(F)(F)F)c2)c1C [Compound I-094] ?
2200

Same thing, different molecule: Cc1c(C(=O)Nc2cccc(C(F)(F)F)c2)cc(C(C)(C)C)n1CC(F)(F)CN1CCOCC1 [Compound I-122]
240

Follow-up item: CNCC(C)(C)Cn1c(C(C)(C)C)cc(C(=O)Nc2cccc(C(F)(F)F)c2)c1C [Compound I-100]
290

Moving on to Cc1c(C(=O)Nc2cccc(C(F)(F)F)c2)cc(-c2ccccn2)n1CCCN1CCOCC1 [Compound I-073]
160

Proceed to Cc1c(C(=O)Nc2cccc(C(F)(F)F)c2)cc(C(C)(C)C)n1[C@H]1CC[C@@H](N)CC1 [Compound I-116]
1500

Same thing, different molecule: Cc1c(C(=O)Nc2cccc(C(F)(F)F)c2)cc(C(C)(C)C)n1CCC(C)N1CCOCC1 (stereo not drawn) [Compound I-097]
130

Could you do the same for Cc1c(C(=O)Nc2cccc(C(F)(F)F)c2)cc(C(C)(C)C)n1[C@H]1CC[C@@H](NS(C)(=O)=O)CC1 [Compound I-115] , please?
1600

Check Cc1c(C(=O)Nc2cccc(C(F)(F)F)c2)cc(C(C)(C)C)n1C1CCN(C2CCNCC2)CC1 [Compound I-109] too.
2300

Query CNCCCn1c(C(C)(C)C)cc(S(=O)(=O)Nc2cccc(C(F)(F)F)c2)c1C [Compound I-117] next
2500

One more molecule: CNC(=O)CCn1c(C(C)(C)C)cc(C(=O)Nc2cccc(C(F)(F)F)c2)c1C [Compound I-092]
2400

Cc1c(C(=O)Nc2cccc(C(F)(F)F)c2)cc(C(C)(C)C)n1CCS(=O)(=O)N1CCOCC1 [Compound I-095] ?
380

Same lookup for Cc1c(C(=O)Nc2cccc(C(F)(F)F)c2)cc(C(C)(C)C)n1[C@H]1CC[C@H](N)CC1 [Compound I-111] , please.
1500
